B1: C10orf62 (parent)
chain: TSECPSDKDKSPESHKAKNESWIK

variants of: B1; test: protein stability index of a GFP-peptide fusion (GPS, HEK-293T) (PSI 1-6); higher = more stable; conditions: c terminus: a fixed tail appended;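 also: lentivirally expressed fusions sorted by FACS into six bins by GFP to DsRed ratio, PSI derived from sequencing read proportions per bin multiplied by bin number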
measure: protein stability index
Please reply with the number alone, leaving off any unit.

*Q* Dear colleague, I am looking for the recorded protein stability index of the following variant: D7A
*A* 2.6

*Q* Dear colleague, I am looking for the recorded protein stability index of the following variant: E3W
*A* 2.63

*Q* Dear colleague, I am looking for the recorded protein stability index of the following variant: K16Q
*A* 3.29
